# Lookup of reported pIC50 keyed by entry
tested on: HT-29 cells; test: MTT cytotoxicity assay, HT-29; assay type: cell-based; settings: Homo sapiens, 48 h, mean ± SD
The quantity pIC50 is defined as the negative base-10 logarithm of the molar concentration.

Examples with answers:
C[C@@H]1O[C@H]2O[C@@H]3[C@@H](C)O[C@@H](c4ccc5c(c4O)C(=O)c4ccc6c(c4C5=O)C(=O)C[C@](C)(O)C6)C[C@H]3O[C@H]2CC1=O [Moromycin B] :: 6.09
C[C@@H]1O[C@H]2O[C@@H]3[C@@H](C)O[C@@H](c4ccc5c(c4O)C(=O)C4=C(C5=O)[C@@]5(O)C(=O)C[C@](C)(O)C[C@@]5(O)C=C4)C[C@H]3O[C@H]2CC1=O [Saquayamycin B1] :: 6.08
C[C@@H]1O[C@@H](O[C@H]2CC[C@H](O[C@@]3(C)CC(=O)[C@]4(O)C5=C(C=C[C@]4(O)C3)C(=O)c3c(ccc([C@H]4C[C@H]6O[C@H]7CC(=O)[C@H](C)O[C@H]7O[C@@H]6[C@@H](C)O4)c3O)C5=O)O[C@H]2C)C=CC1=O [Saquayamycin B] :: 6.05

Shifting focus to the compound that follows.
Input line: Please state recorded pIC50 (tested on HT-29 cells) of COc1cccc2c1C(=O)c1c(O)c3c(c(O)c1C2=O)C[C@@](O)(C(=O)CO)C[C@@H]3O[C@H]1C[C@H](N)[C@H](O)[C@H](C)O1 [Doxorubicin, reference compound]
Output line: 5.99
